Recorded values, source patent US20050054006A1.

List of EX(nm) values.
test: Fluorescence excitation/emission of the styryl dye library compounds; format: physicochemical; conditions: EX/EM peak no. 1
Write the answer as a number in nm, unit excluded.

In the examples that follow, each entry is paired with its recorded EX(nm).
{"STRUCTURE STRING": "COc1ccccc1C=Cc1cc[n+](C)c2ccccc12.[I-]", "EX(nm)": 430}
{"STRUCTURE STRING": "COc1ccc(/C=C/c2cc[n+](C)c(Br)c2)cc1.[I-]", "EX(nm)": 460}
{"STRUCTURE STRING": "COc1ccc(C=Cc2cccc(C)[n+]2C)cc1O.[I-]", "EX(nm)": 390}
{"STRUCTURE STRING": "C[n+]1c(C=Cc2ccc(O)cc2)ccc2ccccc21.[I-]", "EX(nm)": 450}
{"STRUCTURE STRING": "C[n+]1ccc(C=Cc2ccc(O)cc2)cc1Br.[I-]", "EX(nm)": 410}
{"STRUCTURE STRING": "CCc1ccc(C=C/C=C/c2ccc(N(C)C)cc2)[n+](C)c1.[I-]", "EX(nm)": 520}

(Q) Using known records, supply EX(nm) for `COc1ccc2c(ccc(C=Cc3cc(OC)c(OC)c(OC)c3)[n+]2C)c1.[I-]`
(A) 430

(Q) Using known records, supply EX(nm) for `COc1ccc2c(ccc(C=Cc3c(F)c(F)c(F)c(F)c3F)[n+]2C)c1.[I-]`
(A) 380

(Q) Using known records, supply EX(nm) for `COc1ccc2c(ccc(C=Cc3cccc([N+](=O)[O-])c3)[n+]2C)c1.[I-]`
(A) 390

(Q) Using known records, supply EX(nm) for `C[n+]1c(C=Cc2ccc3ccc4cccc5ccc2c3c45)ccc2ccccc21.[I-]`
(A) 480

(Q) Using known records, supply EX(nm) for `CCc1ccc(C=Cc2ccc(OCc3ccccc3)c(OCc3ccccc3)c2)[n+](C)c1.[I-]`
(A) 400

(Q) Using known records, supply EX(nm) for `CCc1ccc(C=Cc2cccc3ccccc23)[n+](C)c1.[I-]`
(A) 420

* * *

test: Fluorescence excitation/emission of the styryl dye library compounds; type: physicochemical; conditions: EX/EM peak no. 1
List of EX(nm) values.
Write the answer as a number in nm, unit excluded.

In the examples that follow, each entry is paired with its recorded EX(nm).
{"STRUCTURE STRING": "C[n+]1ccccc1C=Cc1cccc2ccccc12.[I-]", "UNITS LABEL": "nm", "EX(nm)": 390}
{"STRUCTURE STRING": "C[n+]1ccc(C=Cc2ccccc2F)c2ccccc21.[I-]", "UNITS LABEL": "nm", "EX(nm)": 450}
{"STRUCTURE STRING": "O=Cc1ccccc1C=Cc1cc[n+](C23CC4CC(CC(C4)C2)C3)cc1.[Br-]", "UNITS LABEL": "nm", "EX(nm)": 430}
{"STRUCTURE STRING": "CC(=O)Nc1ccc(C=Cc2ccc3ccccc3[n+]2C)cc1.[I-]", "UNITS LABEL": "nm", "EX(nm)": 430}
{"STRUCTURE STRING": "COc1cc(OC)c(OC)cc1C=Cc1cc[n+](C)c(Br)c1.[I-]", "UNITS LABEL": "nm", "EX(nm)": 460}

(Q) Using known records, supply EX(nm) for `CCc1ccc(C=Cc2cc(OC)c(OC)c(OC)c2)[n+](C)c1.[I-]`
(A) 380

(Q) Using known records, supply EX(nm) for `C[n+]1ccc(/C=C/c2ccc(O)cc2)c2ccccc21.[I-]`
(A) 430

(Q) Using known records, supply EX(nm) for `Brc1ccc(C=Cc2cc[n+](C34CC5CC(CC(C5)C3)C4)cc2)cc1.[Br-]`
(A) 385

(Q) Using known records, supply EX(nm) for `Cc1cccc(/C=C/c2ccc(N(C)C)cc2)[n+]1C.[I-]`
(A) 450

(Q) Using known records, supply EX(nm) for `COc1ccc2c(ccc(C=Cc3ccc4c(c3)OCO4)[n+]2C)c1.[I-]`
(A) 380

(Q) Using known records, supply EX(nm) for `Cc1cccc(/C=C/c2c[nH]c3ccccc23)[n+]1C.[I-]`
(A) 430

* * *

assay: Fluorescence excitation/emission of the styryl dye library compounds; format: physicochemical; details: EX/EM peak no. 2
List of EX(nm) values.

{"STRUCTURE STRING": "COc1ccc2c(ccc(/C=C/c3ccc4ccccc4c3)[n+]2C)c1.[I-]", "TEST VALUE": "320-460 nm"}
{"STRUCTURE STRING": "COc1ccc2c(ccc(C=Cc3ccc(O)cc3)[n+]2C)c1.[I-]", "TEST VALUE": "360-460 nm"}
{"STRUCTURE STRING": "C[n+]1c(C=Cc2ccc(-c3ccccc3)cc2)ccc2ccccc21.[I-]", "TEST VALUE": "420 nm"}

(Q) Using known records, supply EX(nm) for `C(=Cc1ccc2ccccc2c1)c1cc[n+](C23CC4CC(CC(C4)C2)C3)cc1.[Br-]`
(A) 360-400 nm

* * *

experiment: Fluorescence excitation/emission of the styryl dye library compounds; type: physicochemical; conditions: EX/EM peak no. 1
Consider the cut-off 600 nm. If the recorded EM(nm) is strictly smaller, the label is Criterion met; if not, the label is Criterion not met.

{"MOLECULE": "COc1cc(OC)c(OC)cc1C=Cc1cc[n+](C23CC4CC(CC(C4)C2)C3)cc1.[Br-] [Compound B38]", "CLASS LABEL": "Criterion met"}
{"MOLECULE": "C[n+]1c(C=CCc2ccccc2)ccc2ccccc21.[I-] [Compound H1]", "CLASS LABEL": "Criterion not met"}
{"MOLECULE": "Cc1ccnc(-c2cc(C=CC=Cc3ccccc3[N+](=O)[O-])cc[n+]2C)c1.[I-] [Compound J36]", "CLASS LABEL": "Criterion met"}
{"MOLECULE": "COc1ccc2c(ccc(C=Cc3cccc([N+](=O)[O-])c3)[n+]2C)c1.[I-] [Compound I21]", "CLASS LABEL": "Criterion not met"}
{"MOLECULE": "CN(C)c1ccc(/C=C/c2ccc3ccccc3[n+]2C)cc1.[I-] [Compound H19]", "CLASS LABEL": "Criterion not met"}

(Q) I wonder whether COc1ccccc1C=Cc1cc[n+](C23CC4CC(CC(C4)C2)C3)cc1.[Br-] [Compound B9] has EM(nm) below 600 nm. Can you tell?
(A) Criterion met

* * *

test: Fluorescence excitation/emission of the styryl dye library compounds; format: physicochemical; conditions: EX/EM peak no. 1
List of EM(nm) values.
Write the answer as a number in nm, unit excluded.

In the examples that follow, each entry is paired with its recorded EM(nm).
{"COMPOUND": "COc1cc(OC)c(OC)cc1C=Cc1cc[n+](C)c2ccccc12.[I-] [Compound G38]", "UNITS LABEL": "nm", "EM(nm)": 640}
{"COMPOUND": "COc1ccc(C=Cc2cccc(C)[n+]2C)c2ccccc12.[I-] [Compound L14]", "UNITS LABEL": "nm", "EM(nm)": 570}
{"COMPOUND": "Cc1ccc(C=Cc2cc[n+](C)c3ccccc23)cc1.[I-] [Compound G8]", "UNITS LABEL": "nm", "EM(nm)": 650}
{"COMPOUND": "COc1ccc2c(ccc(C=Cc3ccc(-c4ccccc4)cc3)[n+]2C)c1.[I-] [Compound I17]", "UNITS LABEL": "nm", "EM(nm)": 510}

// next item, EM(nm) requested
(Q) Using known records, supply EM(nm) for Cc1cccc(C=Cc2ccc3ccccc3c2)[n+]1C.[I-] [Compound L33]
(A) 500

* * *

assay: Fluorescence excitation/emission of the styryl dye library compounds; assay type: physicochemical; conditions: EX/EM peak no. 1
Rule: t for EX(nm) not less than 400 nm, f for anything less.

{"STRUCTURE STRING": "COc1ccc2c(ccc(C=CC=Cc3ccc(N(C)C)cc3)[n+]2C)c1.[I-]", "CLASS LABEL": "t"}
{"STRUCTURE STRING": "COc1ccc2c(ccc(C=Cc3ccc(N(C)C)c4ccccc34)[n+]2C)c1.[I-]", "CLASS LABEL": "t"}
{"STRUCTURE STRING": "CC(=O)Nc1ccc(C=Cc2cc[n+](C34CC5CC(CC(C5)C3)C4)cc2)cc1.[Br-]", "CLASS LABEL": "t"}
{"STRUCTURE STRING": "Cc1cccc(/C=C/c2ccccn2)[n+]1C.[I-]", "CLASS LABEL": "f"}
{"STRUCTURE STRING": "C[n+]1ccc(C=Cc2ccccn2)cc1Br.[I-]", "CLASS LABEL": "t"}

Please turn your attention to the following entry.
(Q) Has `C(=Cc1c2ccccc2cc2ccccc12)c1cc[n+](C23CC4CC(CC(C4)C2)C3)cc1.[Br-]` a recorded EX(nm) greater than or equal to 400 nm?
(A) t
